All figures here come from patent US8691820B2.

Molecular target: CDK9 (Homo sapiens)
Sequence (P50750 whole entry): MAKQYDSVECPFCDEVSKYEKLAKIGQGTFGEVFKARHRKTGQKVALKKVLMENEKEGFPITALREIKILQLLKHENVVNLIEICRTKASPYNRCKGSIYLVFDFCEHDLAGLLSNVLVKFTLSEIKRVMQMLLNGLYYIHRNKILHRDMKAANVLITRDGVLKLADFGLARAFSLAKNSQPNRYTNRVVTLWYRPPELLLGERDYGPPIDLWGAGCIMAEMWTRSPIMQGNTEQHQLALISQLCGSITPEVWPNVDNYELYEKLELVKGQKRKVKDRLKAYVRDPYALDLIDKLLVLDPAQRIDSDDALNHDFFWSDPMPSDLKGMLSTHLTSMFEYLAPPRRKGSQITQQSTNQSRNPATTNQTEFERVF
Sequence (O60563 whole entry partner): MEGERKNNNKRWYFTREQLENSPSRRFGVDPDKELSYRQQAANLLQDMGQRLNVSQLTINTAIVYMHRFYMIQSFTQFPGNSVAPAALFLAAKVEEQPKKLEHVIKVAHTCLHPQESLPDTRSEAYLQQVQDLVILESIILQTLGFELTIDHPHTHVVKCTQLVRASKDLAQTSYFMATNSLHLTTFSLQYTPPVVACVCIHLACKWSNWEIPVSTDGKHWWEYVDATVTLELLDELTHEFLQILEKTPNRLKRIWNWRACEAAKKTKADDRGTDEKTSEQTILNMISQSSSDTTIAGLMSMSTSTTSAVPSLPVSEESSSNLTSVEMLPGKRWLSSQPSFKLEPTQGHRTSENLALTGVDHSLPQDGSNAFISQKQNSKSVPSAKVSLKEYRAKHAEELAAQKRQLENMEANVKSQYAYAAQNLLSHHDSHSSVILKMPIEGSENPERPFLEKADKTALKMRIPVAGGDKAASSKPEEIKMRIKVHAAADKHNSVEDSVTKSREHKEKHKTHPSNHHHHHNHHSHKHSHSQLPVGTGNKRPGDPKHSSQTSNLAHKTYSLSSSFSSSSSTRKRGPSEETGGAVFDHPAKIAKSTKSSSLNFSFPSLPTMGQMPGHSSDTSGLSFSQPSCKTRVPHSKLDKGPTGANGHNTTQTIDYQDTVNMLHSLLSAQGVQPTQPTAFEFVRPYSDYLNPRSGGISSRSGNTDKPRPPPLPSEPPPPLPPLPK

| Smiles data | Target or test system | IC50 |
| --- | --- | --- |
| CC(C)N(O)C(=O)CCCCCCC(=O)Nc1ncc(SCc2ncc(C(C)(C)C)o2)s1 | CDK9 (Homo sapiens) | ≤ 0.1 µM |

----------
Target: CDK2/cyclinA (Homo sapiens)
Construct: C-terminal 6His-tagged human full length cdk2 (MW=35 kDa); 6His (C)
Experiment: CDK2 kinase assay (33P-ATP, Histone H1 substrate)
Settings: 1 μM ATP, 5 μM Histon H1, 2 hours at room temperature
pIC50: −log10 of the molar value.
Documented pIC50 across a set of molecules

| Molecule | Target or test system | pIC50 |
| --- | --- | --- |
| CC(C)(C)c1cnc(CSc2cnc(NC(=O)CCCCCCC(=O)NOCc3ccccc3)s2)o1 | CDK2/cyclinA (Homo sapiens) | ≥ 7.00 |
| CC(C)(C)c1cnc(CSc2cnc(NC(=O)Cc3ccc(OCCCCC(=O)Nc4ccccc4N)cc3)s2)o1 | CDK2/cyclinA (Homo sapiens) | ≥ 7.00 |
| CONC(=O)CCCOc1ccc(CC(=O)Nc2ncc(SCc3ncc(C(C)(C)C)o3)s2)cc1 | CDK2/cyclinA (Homo sapiens) | ≥ 7.00 |
| CONC(=O)/C=C/c1ccc(C(=O)Nc2ncc(SCc3ncc(C(C)(C)C)o3)s2)cc1 | CDK2/cyclinA (Homo sapiens) | ≥ 7.00 |
| CC(C)(C)c1cnc(CSc2cnc(NC(=O)CCCCCCC(=O)Nc3cccnc3)s2)o1 | CDK2/cyclinA (Homo sapiens) | ≥ 7.00 |
| CC(C)(C)c1cnc(CSc2cnc(NC(=O)CCCCCCC(=O)NOCCO)s2)o1 | CDK2/cyclinA (Homo sapiens) | ≥ 7.00 |
| CC(C)(C)c1cnc(CSc2cnc(NC(=O)Cc3cccc(OCCCC(=O)Nc4ccccc4N)c3)s2)o1 | CDK2/cyclinA (Homo sapiens) | ≥ 7.00 |
| CC(Sc1cnc(NC(=O)CCCCCCC(=O)Nc2ccccc2N)s1)c1ncc(C(C)(C)C)o1 (centres unmarked) | CDK2/cyclinA (Homo sapiens) | ≥ 7.00 |
